# testedSystem: Fuc(a1-2)Gal(b1-4)[Fuc(a1-3)]GlcNAc
# experimentSummary: glycan array binding signal (z-score within array); higher = stronger binding
# conditionSet: glycan notation: IUPAC condensed, linker removed
This excerpt belongs to a sample that is enriched for the strongest signals.
valueType: glycan array binding signal (z-score)

Worked examples, 2 binders total:
>  <binder>
Clec18A (Homo sapiens) (protein) PFHTCDLRIDGDCFMVSSEADTYYRARMKCQRKGGVLAQIKRQKVQDILAFYLGRLETTNEVIDSDFETRNFWIGLTYKTAKDSFRWATGEHQAFTSFAFGQPDNHGFGNCVELQASAAFNWNDQRCKTRNRYICQ

>  <reading>
-0.32

$$$$
>  <binder>
EPL1 (Trichoderma atroviride), A0PCX2 (protein) MQLSNLFKLALFTAAVSADTVSYDTGYDDASRSLTVVSCSDGTNGLITRYHWQTQGQIPRFPYIGGAQAVAGWNSPNCGTCWKLTYSGKTIYVLAIDHTAAGFNIGLDAMNALTNGNAVALGRVSATASQVAVSNCGL

>  <reading>
0.212

$$$$

Give the measured glycan array binding signal (z-score) for NKp30 (Homo sapiens), O14931 (protein) MAWMLLLILIMVHPGSCALWVSQPPEIRTLEGSSAFLPCSFNASQGRLAIGSVTWFRDEVVPGKEVRNGTPERFGRLAPLASSRFLHDHQAELHIRDVRGHDASIYVCRVEVLGLGVGTGNGTRLVVRKEHPQLGAGTHADPEAPEAEGAPSVFLFPPKPKDTLMISRTPEVTCVVVDVSHEDPEVKFNWYVDGVEVHNAKTPREEQYNSTYRVVSVLTVLHQDWLNGKEYKCKVSNKALPAPIEKTISKAKGQPREPQVYTLPPSRDELTKNQVSLTCLVKGFYPSDIAVEWESNGQPENNYKTTPPVLDSDGSFFLYSKLTVDKSRWQQGNVFSCSVMHEALHNHYTQKSLSLSPGK 0.195
